- METHOD_DESCRIPTION: chemical genetic growth profiling, strain panel (AID 1159580);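 further: tested at 20 µM; growth read once vehicle control cultures reached saturation at 30 °C; 1 = growth at the plate median or of vehicle wells; lower values mean less growth of the strain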
- RUN_PARAMETERS: S. cerevisiae deletion strains, growth OD, locus YJL115W, strain asf1, active compounds read low
About 2,000 (36%) of roughly 5,500 compounds were called active. Not shown: some 18% with an inconclusive outcome. This is one part of the list.
Overview of recorded normalized growth for various molecules

>  <MOLECULE>
CC(C(=O)O)c1ccc(C(=O)c2cccs2)cc1 (stereo not given)

>  <normalized growth>
0.995

$$$$
>  <MOLECULE>
CC1C[C@H]2CC(=O)[C@H]3CCCN4CCC[C@H]2[C@]34C1 (stereo not given in full)

>  <normalized growth>
1.01

$$$$
>  <MOLECULE>
Nc1ccc(N=Nc2ccccc2)c(N)n1

>  <normalized growth>
1.01

$$$$
>  <MOLECULE>
CC(C)C(=O)Nc1ccc([N+](=O)[O-])c(C(F)(F)F)c1

>  <normalized growth>
1.03

$$$$
>  <MOLECULE>
CN1C(C(=O)Nc2ccccn2)=C(O)c2ccccc2S1(=O)=O

>  <normalized growth>
0.985

$$$$
>  <MOLECULE>
OCc1ccccc1O

>  <normalized growth>
1.03

$$$$
>  <MOLECULE>
Cc1ccc(Cl)c(Nc2ccccc2C(=O)O)c1Cl

>  <normalized growth>
0.934

$$$$
>  <MOLECULE>
CC1(C)NC(=O)N(c2ccc([N+](=O)[O-])c(C(F)(F)F)c2)C1=O

>  <normalized growth>
0.992

$$$$
>  <MOLECULE>
C=C1C(=O)O[C@@H]2C[C@@]3(C)CCC[C@H](C)C3=C[C@H]12

>  <normalized growth>
0.88

$$$$
>  <MOLECULE>
O=C(Cn1ccnc1[N+](=O)[O-])NCCO

>  <normalized growth>
1.01

$$$$
>  <MOLECULE>
COC(=O)C(O)c1ccccc1 (stereo not given)

>  <normalized growth>
0.981

$$$$
>  <MOLECULE>
O=C1OC(c2ccc(O)cc2)(c2ccc(O)cc2)c2ccccc21

>  <normalized growth>
0.972

$$$$
>  <MOLECULE>
CCOC(=O)[C@H](CCc1ccccc1)N[C@@H](C)C(=O)N1[C@H](C(=O)O)C[C@@H]2CCC[C@@H]21

>  <normalized growth>
0.986

$$$$
>  <MOLECULE>
COc1cc(OC)c2c(=O)c(-c3ccccc3)coc2c1

>  <normalized growth>
1

$$$$
>  <MOLECULE>
NC(N)=NS(=O)(=O)c1ccc(N)cc1

>  <normalized growth>
0.966

$$$$
>  <MOLECULE>
Cc1ccc(C)c(OCCCC(C)(C)C(=O)O)c1

>  <normalized growth>
1

$$$$
>  <MOLECULE>
O=S1OCC2C(CO1)C1(Cl)C(Cl)=C(Cl)C2(Cl)C1(Cl)Cl (stereo not given)

>  <normalized growth>
0.977

$$$$
>  <MOLECULE>
OCCOCCN1CCN(C2=Nc3ccccc3Sc3ccccc32)CC1

>  <normalized growth>
1

$$$$
>  <MOLECULE>
COc1cc(-c2coc3cc(OC)c(OC)c(OC)c3c2=O)cc(OC)c1OC

>  <normalized growth>
1

$$$$
>  <MOLECULE>
Cc1cc(NC(=O)C2=C(O)c3ccccc3S(=O)(=O)N2C)no1

>  <normalized growth>
0.966

$$$$
